# IC50 annotations
Target: Glycine receptor subunit alpha-1 (Rattus norvegicus)
Sequence (P07727 whole entry): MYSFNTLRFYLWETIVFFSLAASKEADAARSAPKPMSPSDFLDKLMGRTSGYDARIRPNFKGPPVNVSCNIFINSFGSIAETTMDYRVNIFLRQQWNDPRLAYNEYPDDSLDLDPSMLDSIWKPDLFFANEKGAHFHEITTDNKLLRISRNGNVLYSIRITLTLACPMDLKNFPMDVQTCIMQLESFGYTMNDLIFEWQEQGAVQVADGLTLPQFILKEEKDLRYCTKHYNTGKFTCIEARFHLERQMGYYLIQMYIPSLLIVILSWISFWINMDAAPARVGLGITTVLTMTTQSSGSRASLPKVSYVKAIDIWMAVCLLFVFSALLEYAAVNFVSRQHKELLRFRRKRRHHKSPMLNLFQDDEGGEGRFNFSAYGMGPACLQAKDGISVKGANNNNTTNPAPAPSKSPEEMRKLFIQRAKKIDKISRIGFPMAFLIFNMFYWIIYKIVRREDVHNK
Assay: Inhibitory concentration required to inhibit [3H]strychnine binding to […]
Observable: IC50

Molecule | Measured value
O=C(O)C1CCN1 (stereo not drawn) | 399 µM
O=C(O)C1CCNCC1 | 94.1 µM
O=C(O)C1=CCNC1 | 7.9 µM
O=C(O)C1C=CCN1 (stereo not drawn) | 242 µM
O=C(O)[C@@H]1CCCN1 (stereo in doubt) [PROLINE] | 414 µM
O=C(O)C1CNC1 | 23.7 µM
O=C(O)[C@@H]1CCCN1 (stereo in doubt; 8) [PROLINE] | 17.2 µM
C[C@H](N)C(=O)O | 198 µM

Sourced from ChEMBL document CHEMBL1126139
